This collection of values is drawn from ChEMBL document CHEMBL1145190.

Molecular target: Dihydrofolate reductase (Pneumocystis carinii, UniProt P16184)
Sequence (P16184 whole entry): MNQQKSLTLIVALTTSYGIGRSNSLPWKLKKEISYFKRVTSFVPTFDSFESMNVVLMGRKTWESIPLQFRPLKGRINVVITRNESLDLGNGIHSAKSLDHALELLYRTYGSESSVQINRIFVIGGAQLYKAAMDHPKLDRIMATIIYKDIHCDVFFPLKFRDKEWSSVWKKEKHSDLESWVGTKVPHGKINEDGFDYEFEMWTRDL
Assay: Inhibition of Pneumocystis carinii dihydrofolate reductase
Measured log10(IC50), listed per entry for reference.
measure: log10(IC50) (log10 of the value in nM)

1. COc1ccc(NCc2ccc3nc(N)nc(N)c3n2)c(OC)c1    3.74
2. Cc1c(CN(C)c2ccc(Cl)cc2)cnc2nc(N)nc(N)c12    1.90
3. COc1ccc(OC)c(NCc2ccc3nc(N)nc(N)c3n2)c1    3.64
4. COc1ccc(NCc2ccc3nc(N)nc(N)c3n2)cc1    2.93
5. COc1cc(-n2ccc3c4c(N)nc(N)nc4nc(=O)c-3c2)cc(OC)c1OC    3.63
6. CN(Cc1ccc2nc(N)nc(N)c2n1)c1ccccc1Cl    2.32
7. Nc1nc(N)c2nc(CNc3cccc4ccccc34)ccc2n1    2.36
8. CN(Cc1ccc2nc(N)nc(N)c2n1)c1cc(Cl)ccc1Cl    2.18
9. CN(Cc1ccc2nc(N)nc(N)c2n1)c1ccccc1    2.46
10. COc1ccc(N(C)Cc2ccc3nc(N)nc(N)c3n2)c(OC)c1    2.20
11. COc1cc(OC)c(CN(C)c2ccc3nc(N)nc(N)c3c2)c(OC)c1    5.06

* * *

Target: Dihydrofolate reductase (Rattus norvegicus, UniProt Q920D2)
Sequence (Q920D2 whole entry): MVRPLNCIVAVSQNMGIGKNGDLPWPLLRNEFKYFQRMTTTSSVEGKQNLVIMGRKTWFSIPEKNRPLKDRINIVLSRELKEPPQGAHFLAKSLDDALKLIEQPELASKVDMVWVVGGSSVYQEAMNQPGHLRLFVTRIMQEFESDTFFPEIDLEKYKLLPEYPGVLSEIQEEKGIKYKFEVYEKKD
Assay: Inhibition of rat liver dihydrofolate reductase
pIC50: −log10 of the molar value.
Give MET when the value for pIC50 is at least 7. Give NOT MET when it is less.

1. Cc1c(CN(C)c2ccc(Cl)cc2)cnc2nc(N)nc(N)c12    NOT MET
2. COc1ccc(N(C)Cc2ccc3nc(N)nc(N)c3n2)cc1OC    NOT MET
3. COc1cc(CCC2CNc3nc(N)nc(N)c3C2)cc(OC)c1OC (stereo unspecified)    NOT MET
4. COc1cc(NNCc2cnc3nc(N)nc(N)c3c2C)c(-n2cccc2)cc1OC    NOT MET
5. Cc1c(CN(C)c2ccccc2)cnc2nc(N)nc(N)c12    MET

* * *

Biological target: Bifunctional dihydrofolate reductase-thymidylate synthase (Toxoplasma gondii, UniProt Q07422)
Sequence (Q07422 whole entry): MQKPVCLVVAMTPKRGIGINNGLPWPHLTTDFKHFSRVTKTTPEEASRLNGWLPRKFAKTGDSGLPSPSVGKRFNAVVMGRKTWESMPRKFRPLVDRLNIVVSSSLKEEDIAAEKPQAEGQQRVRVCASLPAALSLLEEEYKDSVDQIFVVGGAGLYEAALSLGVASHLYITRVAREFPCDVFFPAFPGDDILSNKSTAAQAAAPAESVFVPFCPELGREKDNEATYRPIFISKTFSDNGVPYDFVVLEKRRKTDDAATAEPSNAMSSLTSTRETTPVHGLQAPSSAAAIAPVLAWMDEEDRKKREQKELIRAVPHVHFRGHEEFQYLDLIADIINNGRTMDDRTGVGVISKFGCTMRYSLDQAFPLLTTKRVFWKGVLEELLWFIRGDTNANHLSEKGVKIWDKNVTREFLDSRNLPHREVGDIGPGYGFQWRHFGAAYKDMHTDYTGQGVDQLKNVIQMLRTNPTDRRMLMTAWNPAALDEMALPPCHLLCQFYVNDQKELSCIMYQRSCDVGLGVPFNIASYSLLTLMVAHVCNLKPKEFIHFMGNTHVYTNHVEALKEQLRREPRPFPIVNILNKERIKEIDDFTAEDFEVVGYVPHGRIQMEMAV
Assay: Inhibition of Toxoplasma gondii dihydrofolate reductase
Define the label as Criterion met when IC50 is strictly less than 70 nM and as Criterion not met in all remaining cases.

1. COc1cc(NCc2cnc3nc(N)nc(N)c3c2C)c(O)cc1-n1cccc1    Criterion met
2. Cc1c(CN(C)c2ccccc2)cnc2nc(N)nc(N)c12    Criterion met
3. CN(Cc1ccc2nc(N)nc(N)c2n1)c1ccccc1    Criterion met
4. COc1ccc(OC)c(N(C)Cc2ccc3nc(N)nc(N)c3n2)c1    Criterion not met

* * *

Target: Dihydrofolate reductase (Pneumocystis carinii)
Assay: Inhibition of Pneumocystis carinii dihydrofolate reductase
Please assign Not met whenever IC50 is at or above 600 nM, and Met whenever it is below.

1) CN(Cc1ccc2nc(N)nc(N)c2n1)c1ccc(Cl)cc1Cl    Met
2) CN(Cc1ccc2nc(N)nc(N)c2n1)c1cc(Cl)c(Cl)c(Cl)c1    Met
3) Cc1c(C)c(-n2cccc2)c(C)c(C)c1NNCc1cnc2nc(N)nc(N)c2c1C    Not met
4) COc1ccc(N(C)Cc2ccc3nc(N)nc(N)c3n2)c(OC)c1    Met
5) Nc1nc(N)c2nc(CNc3c(Cl)cccc3Cl)ccc2n1    Not met
6) COc1ccc(OC)c(NCc2ccc3nc(N)nc(N)c3n2)c1    Not met

* * *

Target: Dihydrofolate reductase (Pneumocystis carinii, UniProt P16184)
Sequence (P16184 whole entry): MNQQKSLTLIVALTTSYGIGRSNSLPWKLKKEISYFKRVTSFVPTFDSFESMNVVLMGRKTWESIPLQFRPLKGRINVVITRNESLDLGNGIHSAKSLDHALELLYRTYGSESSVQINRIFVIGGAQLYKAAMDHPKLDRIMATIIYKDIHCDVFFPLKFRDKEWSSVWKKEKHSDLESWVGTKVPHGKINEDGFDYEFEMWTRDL
Assay: Inhibition of Pneumocystis carinii dihydrofolate reductase
pIC50: −log10 of the molar value.
measure: pIC50

1) COc1ccc(N(C)Cc2ccc3nc(N)nc(N)c3n2)cc1OC    7.04
2) COc1ccc(-c2ccccc2)cc1NNCc1cnc2nc(N)nc(N)c2c1C    7.19
3) Nc1nc(N)c2nc(CSc3ccc4ccccc4c3)ccc2n1    6.42
4) COc1cc(NCc2ccc3nc(N)nc(N)c3n2)cc(OC)c1OC    5.70
5) CCN(Cc1cnc2nc(N)nc(N)c2c1C)c1cc(OC)c(OC)c(OC)c1    6.30
6) Nc1nc(N)c2nc(CNc3cccc4ccccc34)ccc2n1    6.64
7) COc1cc(-n2ccc3c4c(N)nc(N)nc4nc(=O)c-3c2)cc(OC)c1OC    5.37
8) COc1cc(OC)c(CN(C)c2ccc3nc(N)nc(N)c3c2)c(OC)c1    3.94

* * *

Target: Dihydrofolate reductase (Rattus norvegicus, UniProt Q920D2)
Assay: Inhibition of rat liver dihydrofolate reductase
pIC50: −log10 of the molar value.
Response key: Condition met means pIC50 >= 7; Condition not met means pIC50 < 7.

1. COc1cc(OC)c(CN(C)c2ccc3nc(N)nc(N)c3c2)c(OC)c1    Condition not met
2. COc1cc(NCc2cnc3nc(N)nc(N)c3c2C)c(O)cc1-n1cccc1    Condition not met
3. COc1ccc(CNc2cnc3nc(N)nc(N)c3c2)c(OC)c1OC    Condition not met
4. Nc1nc(N)c2cc(NCc3cccc4ccccc34)ccc2n1    Condition not met
5. CN(Cc1cccc2ccccc12)c1ccc2nc(N)nc(N)c2c1    Condition met
6. COc1ccc(-c2ccccc2)cc1NNCc1cnc2nc(N)nc(N)c2c1C    Condition not met
7. COc1cc(N(C)Cc2cnc3nc(N)nc(N)c3c2C)cc(OC)c1OC    Condition met
8. COc1cc(-n2ccc3c4c(N)nc(N)nc4nc(=O)c-3c2)cc(OC)c1OC    Condition not met
9. COc1cc(N(C)Cc2ccc3nc(N)nc(N)c3n2)cc(OC)c1OC    Condition met
10. Cc1c(C)c(-n2cccc2)c(C)c(C)c1NNCc1cnc2nc(N)nc(N)c2c1C    Condition not met
11. Nc1nc(N)c2nc(CSc3cccc4ccccc34)ccc2n1    Condition not met

* * *

Measured IC50 accompanies every entry in the list below.
Biological target: Dihydrofolate reductase (Rattus norvegicus, UniProt Q920D2)
Assay: Inhibition of rat liver dihydrofolate reductase
measure: IC50 (µM)

1. Cc1c(C)c(-n2cccc2)c(C)c(C)c1NNCc1cnc2nc(N)nc(N)c2c1C    0.17
2. COc1cc(-n2ccc3c4c(N)nc(N)nc4nc(=O)c-3c2)cc(OC)c1OC    1.12
3. Nc1nc(N)c2c(n1)CCC(CNc1cccc(Cl)c1)C2 (stereo unspecified)    0.128
4. COc1cc(N(C)CC2CCc3nc(N)nc(N)c3C2)cc(OC)c1OC (stereo unspecified)    0.038
5. COc1ccccc1NCc1cnc2nc(N)nc(N)c2c1C    0.0801
6. COc1cc(CCC2CNc3nc(N)nc(N)c3C2)cc(OC)c1OC (stereo unspecified)    2.1
